This collection of values is drawn from patent US20210045385A1.

- System: pigweed (Amaranthus retroflexus)
- Test description: Test A preemergence, visual plant response rating
- Type: in vivo
- Condition context: 500 g ai/ha Preemergence; approx. 10 days
Some compounds, each annotated with its measured Pigweed plant response rating (0 to 100 scale).
Lab note: record just the number, no unit beside it.

Worked cases, Pigweed plant response rating (0 to 100 scale) given:
{"columns": ["Compound", "Result value"],
 "data": [
  ["CON=C(c1c(O)c(C)nn(C)c1=O)c1cccc2cc(Br)ccc12 [Compound 100]", 100],
  ["CO/N=C(\\c1c(O)c(Cl)nn(C)c1=O)c1cccc2ccccc12", 90],
  ["Cc1nn(C)c(=O)c(C(=NOCC=CCl)c2ccc(F)c3ccccc23)c1O", 80],
  ["CCc1ccccc1/C(=N\\OC)c1c(O)c(C)nn(C)c1=O", 70]
]}

Query :: Give reported Pigweed plant response rating (0 to 100 scale) value for CO/N=C(/c1c(O)c(C)nn(C)c1=O)c1cccc2ccccc12
Result :: 90

Query :: Provide only the value of recorded Pigweed plant response rating (0 to 100 scale) for C#CCON=C(c1c(O)c(C)nn(C)c1=O)c1cccc2ccccc12 (mixture of isomers)
Result :: 100

----------
- Tested on: kochia (Bassia scoparia)
- Test description: Test C postemergence, visual plant response rating
- Assay type: in vivo
- Condition context: Test C, postemergence, 125 g ai/ha
Would you please tag the item 1.0 when its Kochia plant response rating (0 to 100 scale) is 70 or above, and 0.0 when it is below?

Query :: Has CON=C(c1cc(C)cc(Cl)c1)c1c(O)c(C)nn(C)c1=O [Compound 174] a recorded Kochia plant response rating (0 to 100 scale) greater than or equal to 70?
Result :: 1.0

Query :: Reported Kochia plant response rating (0 to 100 scale) at or above 70? CON=C(c1cc(Cl)cc(F)c1Cl)c1c(O)c(C)nn(C)c1=O [Compound 272]
Result :: 1.0

Query :: Does CO/N=C(/c1cccc(/C=C/Cl)c1)c1c(O)c(C)nn(C)c1=O [Compound 285] have a reported Kochia plant response rating (0 to 100 scale) of at least 70?
Result :: 0.0

Query :: Check the entry CO/N=C(/c1c(O)c(C)nn(C)c1=O)c1cccc2cc(Cl)ccc12 [Compound 301] : does Kochia plant response rating (0 to 100 scale) equal or exceed 70?
Result :: 0.0

Query :: Reported Kochia plant response rating (0 to 100 scale) at or above 70? CON=C(c1cc(Cl)cc(Cl)c1)c1c(O)c(C)nn(C)c1=O [Compound 189]
Result :: 1.0

----------
- Test system: foxtail, giant (giant foxtail, Setaria faberi)
- Test description: Test C preemergence, visual plant response rating
- Format: in vivo
- Condition context: 125 g ai/ha
// label 0 strictly below 70 in Foxtail, Giant plant response rating (0 to 100 scale); label 1 otherwise

{"columns": ["Molecule", "Category"],
 "data": [
  ["C#CCO/N=C(/c1ccc(F)c(Br)c1)c1c(O)c(C)nn(C)c1=O", "label 0"],
  ["Cc1nn(C)c(=O)c(/C(=N/OC(C)C)c2cc(Cl)cc(Cl)c2Cl)c1O", "label 1"],
  ["CON=C(c1ccc(F)c(Br)c1)c1c(O)c(C)nn(C)c1=O [Compound 177]", "label 0"],
  ["C#CCON=C(c1c(O)c(OC)nn(C)c1=O)c1cccc2ccccc12 (mixture of isomers)", "label 1"],
  ["C#CCO/N=C(\\c1cc(Cl)cc(Cl)c1Cl)c1c(O)c(C)nn(C)c1=O", "label 1"]
]}

Query :: For this molecule, is measured Foxtail, Giant plant response rating (0 to 100 scale) 70 or higher? CON=C(c1csc(C)c1)c1c(O)c(C)nn(C)c1=O
Result :: label 0

Query :: Form field: Foxtail, Giant plant response rating (0 to 100 scale) at least 70? Entry: CON=C(c1ccc(F)c(Br)c1)c1c(O)c(C)nn(C)c1=O [Compound 176]
Result :: label 0

Query :: Textbook exercise: given the entry C#CCON=C(c1ccc(Cl)c(Cl)c1)c1c(O)c(C)nn(C)c1=O , state whether its Foxtail, Giant plant response rating (0 to 100 scale) is greater than or equal to 70.
Result :: label 0

Query :: Dear colleague, could you confirm whether CCON=C(c1cc(Cl)cc(Br)c1)c1c(O)c(C)nn(C)c1=O has Foxtail, Giant plant response rating (0 to 100 scale) at or above 70?
Result :: label 1

----------
- Tested on: pigweed (Amaranthus retroflexus)
- Test description: Test C postemergence, visual plant response rating
- Format: in vivo
- Condition context: Test C, postemergence, 125 g ai/ha
# if value of Pigweed plant response rating (0 to 100 scale) reaches 90, tag condition met; if it stays below, tag condition not met

{"columns": ["Smiles record", "Category"],
 "data": [
  ["CO/N=C(/c1cc(Cl)cc(OC)c1)c1c(O)c(C)nn(C)c1=O", "condition not met"],
  ["CON=C(c1ccc(F)c(Br)c1)c1c(O)c(C)nn(C)c1=O", "condition not met"],
  ["Cc1nn(C)c(=O)c(C(=NOCC2CC2)c2cc(Cl)cc(Cl)c2Cl)c1O", "condition not met"],
  ["CO/N=C(/c1c(O)c(C)nn(C)c1=O)c1cccc2cc(Cl)ccc12", "condition not met"],
  ["CO/N=C(\\c1c(O)c(C)nn(C)c1=O)c1cc(SC)cc2ccccc12", "condition not met"],
  ["C#CCO/N=C(\\c1c(O)c(Cl)nn(C)c1=O)c1ccc(F)c2ccccc12", "condition met"]
]}

Query :: Dear colleague, could you confirm whether CO/N=C(\c1cc(Cl)c(F)c(Cl)c1)c1c(O)c(C)nn(C)c1=O has Pigweed plant response rating (0 to 100 scale) at or above 90?
Result :: condition not met

Query :: hey, is Pigweed plant response rating (0 to 100 scale) for this one >= 90? C#CCO/N=C(\c1ccc(Cl)c(Cl)c1)c1c(O)c(C)nn(C)c1=O
Result :: condition not met

Query :: Exam item: decide whether the reported Pigweed plant response rating (0 to 100 scale) for CCO/N=C(\c1c(O)c(C)nn(C)c1=O)c1cccc2cc(Cl)ccc12 is at least 90.
Result :: condition met

Query :: Reported Pigweed plant response rating (0 to 100 scale) at or above 90? CCO/N=C(/c1c(O)c(Cl)nn(C)c1=O)c1ccc(F)c2ccccc12
Result :: condition met

Query :: Identify whether the reported Pigweed plant response rating (0 to 100 scale) of the following compound is 90 or greater: CON=C(c1cccc(OCC(F)(F)F)c1)c1c(O)c(C)nn(C)c1=O
Result :: condition not met

Query :: Test whether the compound C#CCO/N=C(\c1cc(Cl)cc(Cl)c1Cl)c1c(O)c(C)nn(C)c1=O records Pigweed plant response rating (0 to 100 scale) of 90 or higher.
Result :: condition not met

----------
- System: galium (catchweed bedstraw, Galium aparine)
- Test description: Test A postemergence, visual plant response rating
- Assay type: in vivo
- Condition context: Postemergence, 125 g ai/ha; 0 to 100 scale (0 no effect, 100 complete control)
With a cut-off of 80, any Galium plant response rating strictly below it is called yes (1); any Galium plant response rating meeting it or above is called no (0).

# count of solved cases: 3
{"columns": ["Compound", "Category"],
 "data": [
  ["CO/N=C(\\c1cccc(C)c1C)c1c(O)c(C)nn(C)c1=O", "yes (1)"],
  ["C=CCON=C(c1c(O)c(C)nn(C)c1=O)c1cc(Br)cc2ccccc12 [Compound 115]", "no (0)"],
  ["CCc1cccc(/C(=N\\OC)c2c(O)c(C)nn(C)c2=O)c1", "yes (1)"]
]}

Query :: Please indicate whether the reported Galium plant response rating of CO/N=C(\c1c(O)c(C)nn(C)c1=O)c1cc(Br)cc2ccccc12 is strictly below 80.
Result :: no (0)

Query :: Could you please tell me whether Galium plant response rating recorded for CO/N=C(\c1cccc(S(C)(=O)=O)c1)c1c(O)c(C)nn(C)c1=O is less than 80?
Result :: yes (1)

Query :: Input CO/N=C(\c1csc(C)c1)c1c(O)c(C)nn(C)c1=O ; condition: Galium plant response rating strictly below 80. Does it hold?
Result :: yes (1)

----------
The reader will find reported Barnyardgrass plant response rating (0 to 100 scale) values listed item by item below.
- Tested on: barnyardgrass (Echinochloa crus-galli)
- Test description: Test C postemergence, visual plant response rating
- Assay type: in vivo
- Condition context: Test C, postemergence, 125 g ai/ha
- From the text: […]

Query :: Entry CON=C(c1cc(Cl)cc(Cl)c1F)c1c(O)c(C)nn(C)c1=O [Compound 299] needs its Barnyardgrass plant response rating (0 to 100 scale) filled in; supply it.
Result :: 90

Query :: Annotate the compound CO/N=C(/c1c(O)c(C)nn(C)c1=O)c1cccc2cc(Cl)ccc12 [Compound 301] with its measured Barnyardgrass plant response rating (0 to 100 scale).
Result :: 40

Query :: Supply recorded Barnyardgrass plant response rating (0 to 100 scale) for CC(C)O/N=C(\c1c(O)c(Cl)nn(C)c1=O)c1ccc(F)c2ccccc12 [Compound 210] here.
Result :: 70
